# System: C. elegans infected with MRSA
# assay: Treatment of C. elegans infected with MRSA
# settings: MRSA-infected worms, 100 μM, versus DMSO control
Marks after values point to notes of the source that are not given here.
measurementName: Log Reduction

# compound, Log Reduction
records = [
    ("O=C(O)c1cc(S(=O)(=O)Nc2ccc(CCC3CCCCC3)cc2)ccc1O", "2.84*"),
    ("CCCCCCCc1ccc(NS(=O)(=O)c2ccc(O)c(C(=O)O)c2)cc1", "3.24*"),
    ("CCCCCCCCCCc1ccc(NS(=O)(=O)c2ccc(O)c(C(=O)O)c2)cc1", "2.71*"),
]

Continue with the compound presented below.
Q) I am curious: what Log Reduction value has been reported for CN[C@H](CC(C)C)C(=O)N[C@H]1C(=O)N[C@@H](CC(N)=O)C(=O)N[C@H]2C(=O)N[C@H]3C(=O)N[C@H](C(=O)N[C@H](C(=O)O)c4cc(O)cc(O)c4-c4cc3ccc4O)[C@H](O)c3ccc(c(Cl)c3)Oc3cc2cc(c3O[C@@H]2O[C@H](CO)[C@@H](O)[C@H](O)[C@H]2O[C@H]2C[C@](C)(N)[C@H](O)[C@H](C)O2)Oc2ccc(cc2Cl)[C@H]1O [Vancomycin, vancomycin, reference compound] ?
A) 1.78*

* * *

# System: methicillin-resistant Staphylococcus aureus (MRSA) ATCC 43300
# assay: MIC/MBC micro dilution against MRSA
# settings: Staphylococcus aureus
Assignment: determine reported MBC for the given molecules.
One number for each entry, in µM.

Solved cases (5 shown):
# smilesString, testResult
measured = [
    ("CCCCCCCc1ccc(NS(=O)(=O)c2ccc(O)c(C(=O)O)c2)cc1", 64),
    ("CC(C)CCCCc1ccc(NS(=O)(=O)c2ccc(O)c(C(=O)O)c2)cc1", 64),
    ("CCCCCCCCCCc1ccc(NS(=O)(=O)c2ccc(O)c(C(=O)O)c2)cc1", 16),
    ("O=C(O)c1cc(S(=O)(=O)Nc2ccc(CCC3CCCCC3)cc2)ccc1O", 32),
    ("CCCCCCCCCCCCc1ccc(NS(=O)(=O)c2ccc(O)c(C(=O)O)c2)cc1", 128),
]

Q) I am curious: what MBC value has been reported for CCCCCCc1ccc(NS(=O)(=O)c2ccc(O)c(C(=O)O)c2)cc1 ?
A) 128

* * *

# Test system: C. elegans infected with VRE
# assay: Treatment of C. elegans infected with VRE
# settings: VRE-infected worms, 100 μM, 16 hours treatment
Assignment: determine reported Log CFU/worm for the given compounds.

Solved cases (3 shown):
# compound, Log CFU/worm
records = [
    ("CCCCCCCCCCc1ccc(NS(=O)(=O)c2ccc(O)c(C(=O)O)c2)cc1", "0.70 ± 0.37 Log CFU/worm"),
    ("CCCCCCCc1ccc(NS(=O)(=O)c2ccc(O)c(C(=O)O)c2)cc1", "0.86 ± 1.03 Log CFU/worm"),
    ("CC(=O)NC[C@H]1CN(c2ccc(N3CCOCC3)c(F)c2)C(=O)O1 [Linezolid, linezolid, reference compound]", "1.47 ± 0.06 Log CFU/worm"),
]

Continue with the compound presented below.
Q) I am curious: what Log CFU/worm value has been reported for O=C(O)c1cc(S(=O)(=O)Nc2ccc(CCC3CCCCC3)cc2)ccc1O ?
A) 0.43 ± 0.68 Log CFU/worm
